The reported numbers originate from ChEMBL document CHEMBL4689842.

Catalogue of Population Fragmented Nuclei (%) values
Tested on: Fibroblast
measurement description: Multiplex assay against human fibroblast
Assay type: toxicity, cell-based
test conditions: 24 h, 1 µM, compound concentration 1 uM, replicate 2
Lab book: enter the figure in %, no units written.

Example results:
>  <compound>
COc1cc2c(Nc3ccc(NC(=O)c4ccccc4)cc3)ncnc2cc1OCCCN1CCOCC1

>  <observable>
Population Fragmented Nuclei (%)

>  <value reported>
34

$$$$
>  <compound>
CNC(=O)c1cc(Oc2ccc(NC(=O)Nc3cc(C(C)(C)C)nn3-c3ccc4ncccc4c3)c(F)c2)ccn1

>  <observable>
Population Fragmented Nuclei (%)

>  <value reported>
56

$$$$
>  <compound>
CCOc1cc(N2CCC(O)CC2)ccc1Nc1ncc2c(n1)N(C1CCCC1)CCC(=O)N2C

>  <observable>
Population Fragmented Nuclei (%)

>  <value reported>
57

$$$$
>  <compound>
COc1ccc(NS(=O)(=O)c2sc3ccc(Cl)cc3c2C)cc1N1CCNCC1.Cl

>  <observable>
Population Fragmented Nuclei (%)

>  <value reported>
10

$$$$
>  <compound>
CCOc1cc2ncc(C#N)c(Nc3ccc(OCc4cccc(F)c4)c(Cl)c3)c2cc1NC(=O)/C=C/CN(C)C

>  <observable>
Population Fragmented Nuclei (%)

>  <value reported>
59

$$$$

# input // lookup Population Fragmented Nuclei (%) for CCC(=O)O[C@]1(C(=O)SCF)[C@H](C)C[C@H]2[C@@H]3C[C@H](F)C4=CC(=O)C=C[C@]4(C)[C@@]3(F)[C@@H](O)C[C@@]21C [FLUTICASONE PROPIONATE]
# output 3

# input // lookup Population Fragmented Nuclei (%) for Cc1nc(Cc2cccc(C(F)(F)F)c2)sc1-c1ccc(C(N)=O)nc1 [TP-024n]
# output 5

# input // lookup Population Fragmented Nuclei (%) for CN(C)CCOc1ccc(-c2nc(-c3ccncc3)c(-c3ccc4c(c3)CC/C4=N\O)[nH]2)cc1
# output 36

# input // lookup Population Fragmented Nuclei (%) for Nc1nc2c(c(N3CCNCC3)n1)CCC1=C2[C@@H]2CCCC[C@@H]2O1
# output 22

* * *

Catalogue of Population Pyknosed Nuclei (%) values
Tested on: U2OS
measurement description: Multiplex assay against U2OS
Type: toxicity, cell-based
test conditions: human, 24 h, 10 µM, compound concentration 10 uM, replicate 2
Lab book: enter the figure in %, no units written.

>  <compound>
CNC(=O)c1cc(Oc2ccc(NC(=O)Nc3cc(C(C)(C)C)nn3-c3ccc4ncccc4c3)c(F)c2)ccn1

>  <observable>
Population Pyknosed Nuclei (%)

>  <value reported>
25

$$$$

# input // lookup Population Pyknosed Nuclei (%) for Cc1nc(Cc2cccc(C(F)(F)F)c2)sc1-c1ccc(C(N)=O)nc1 [TP-024n]
# output 26

# input // lookup Population Pyknosed Nuclei (%) for CCOc1cc(N2CCC(O)CC2)ccc1Nc1ncc2c(n1)N(C1CCCC1)CCC(=O)N2C
# output 2

# input // lookup Population Pyknosed Nuclei (%) for COc1ccc(NS(=O)(=O)c2sc3ccc(Cl)cc3c2C)cc1N1CCNCC1.Cl
# output 35

# input // lookup Population Pyknosed Nuclei (%) for Cl.Cl.NC1(c2ccc(-c3nc4ccn5c(=O)[nH]nc5c4cc3-c3ccccc3)cc2)CCC1
# output 58

* * *

Catalogue of Population Tubulin-Different-Phenotype (%) values
Test system: HEK-293T
measurement description: Multiplex assay against HEK293T;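 on Population Tubulin-Different-Phenotype (%): share of the cells with healthy nuclei that show this phenotype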
Format: toxicity, cell-based
test conditions: human, 24 h, 10 µM, compound concentration 10 uM, replicate 2
Lab book: enter the figure in %, no units written.

>  <compound>
O=C(O)c1ccc2cc(-c3ccc(O)c(C45CC6CC(CC(C6)C4)C5)c3)ccc2c1

>  <value reported>
16

$$$$
>  <compound>
CCC(=O)O[C@]1(C(=O)SCF)[C@H](C)C[C@H]2[C@@H]3C[C@H](F)C4=CC(=O)C=C[C@]4(C)[C@@]3(F)[C@@H](O)C[C@@]21C [FLUTICASONE PROPIONATE]

>  <value reported>
53

$$$$
>  <compound>
CC(C)N1CCC(C)(C)c2cc(C#Cc3ccc(C(=O)O)cc3)ccc21

>  <value reported>
9

$$$$

# input // lookup Population Tubulin-Different-Phenotype (%) for CNC(=O)c1cc(Oc2ccc(NC(=O)Nc3cc(C(C)(C)C)nn3-c3ccc4ncccc4c3)c(F)c2)ccn1
# output 98

# input // lookup Population Tubulin-Different-Phenotype (%) for Cl.Cl.NC1(c2ccc(-c3nc4ccn5c(=O)[nH]nc5c4cc3-c3ccccc3)cc2)CCC1
# output 92

# input // lookup Population Tubulin-Different-Phenotype (%) for CCCn1c(=O)c2[nH]c(C34CC5CC(CC3C5)C4)nc2n(CCC)c1=O
# output 87

* * *

Test system: HEK-293T
measurement description: Multiplex assay against HEK293T
Assay type: toxicity, cell-based
test conditions: human, 24 h, 10 µM, compound concentration 10 uM, replicate 1
observable: Population Healthy Nuclei (%)
Lab book: enter the figure in %, no units written.

Example results:
>  <chemical string>
CC(C)(C)c1cnc(CSc2cnc(NC(=O)C3CCNCC3)s2)o1

>  <target or system>
HEK-293T

>  <Population Healthy Nuclei (%)>
45

$$$$
>  <chemical string>
COc1cc2c(Nc3ccc(NC(=O)c4ccccc4)cc3)ncnc2cc1OCCCN1CCOCC1

>  <target or system>
HEK-293T

>  <Population Healthy Nuclei (%)>
75

$$$$
>  <chemical string>
CC(=O)c1cc(-c2cc(C(=O)NC3CC3)ccc2C)c2ncccn12

>  <target or system>
HEK-293T

>  <Population Healthy Nuclei (%)>
31

$$$$
>  <chemical string>
N#Cc1cnc(Nc2cc(NC[C@H]3CNCCO3)c(C(F)(F)F)cn2)cn1

>  <target or system>
HEK-293T

>  <Population Healthy Nuclei (%)>
70

$$$$

# input Value wanted: Population Healthy Nuclei (%) (HEK-293T) of entry O=C(O)c1ccc2cc(-c3ccc(O)c(C45CC6CC(CC(C6)C4)C5)c3)ccc2c1
# output 43

* * *

Tested on: Fibroblast
measurement description: Multiplex assay against human fibroblast
Format: toxicity, cell-based
test conditions: 48 h, 10 µM, compound concentration 10 uM, replicate 1
observable: Population Hoechst High Intensity Objects (%)

>  <compound>
Nc1nc2c(c(N3CCNCC3)n1)CCC1=C2[C@@H]2CCCC[C@@H]2O1

>  <value reported>
49%

$$$$

Please examine the following record next.
# input // lookup Population Hoechst High Intensity Objects (%) for C1=N/C2=N/c3ccc(OCCN4CCCC4)c(c3)COC/C=C\COCc3cccc(c3)C(=C1)N2
# output 20%

* * *

Catalogue of Growth Rate values
Test system: U2OS
measurement description: Incucyte cell viability with U2OS; further: filed as whole numbers so only -1 and 0 and 1 occur
Assay type: toxicity, cell-based
test conditions: human, 0 h, 10 µM, compound concentration 10 uM, replicate number 1, timepoint 0 hours

>  <compound>
CN(CCOc1ccc(C[C@H](Nc2ccccc2C(=O)c2ccccc2)C(=O)O)cc1)c1ccccn1.O

>  <observable>
Growth Rate

>  <value reported>
0

$$$$
>  <compound>
COc1cc(N2CCC(N(C)C)CC2)ccc1Nc1ncc(Cl)c(Nc2ccccc2P(C)(C)=O)n1

>  <observable>
Growth Rate

>  <value reported>
0

$$$$
>  <compound>
Cc1nc2sccn2c(=O)c1CCN1CCC(=C(c2ccc(F)cc2)c2ccc(F)cc2)CC1

>  <observable>
Growth Rate

>  <value reported>
1

$$$$
>  <compound>
CC(C)NCC(O)c1ccc(N)c(C#N)c1 (configuration not stated)

>  <observable>
Growth Rate

>  <value reported>
0

$$$$
>  <compound>
COc1cc2c(cc1-c1c(C)noc1C)ncc1[nH]c(=O)n([C@H](C)c3ccccn3)c12

>  <observable>
Growth Rate

>  <value reported>
0

$$$$
>  <compound>
N#Cc1cnc(Nc2cc(NC[C@H]3CNCCO3)c(C(F)(F)F)cn2)cn1

>  <observable>
Growth Rate

>  <value reported>
1

$$$$

Please examine the following record next.
# input // lookup Growth Rate for CC(=O)N1CCC(c2ccc(C(=O)NC3=NCCN3)cc2C(F)(F)F)CC1
# output 0

* * *

Tested on: HEK-293T
measurement description: Multiplex assay against HEK293T
Assay type: toxicity, cell-based
test conditions: human, 24 h, 1 µM, compound concentration 1 uM, replicate 2
Catalogue of Total Cell Count values
Would you mind answering with just the numeric figure?

# input // lookup Total Cell Count for Cc1cc2c(cc1N1C(=O)c3cccc4c(CCCO)ccc(c34)C1=O)n(C)c(=O)n2C
# output 194

# input // lookup Total Cell Count for CNC(=O)c1nn(C)c2c1C(C)(C)Cc1cnc(Nc3ccc(N4CCN(C)CC4)cc3)nc1-2
# output 887

# input // lookup Total Cell Count for CCOc1cc2ncc(C#N)c(Nc3ccc(OCc4cccc(F)c4)c(Cl)c3)c2cc1NC(=O)/C=C/CN(C)C
# output 2811

# input // lookup Total Cell Count for Cc1cn(-c2cc(NC(=O)c3ccc4c(c3)CN(c3cncnc3)C[C@@H]4C)cc(C(F)(F)F)c2)cn1
# output 2221

# input // lookup Total Cell Count for c1ccc2oc(-c3csc(C4CCN(Cc5nc6ncccc6[nH]5)CC4)n3)cc2c1
# output 1346
